Field: pIC50. System: Oxysterols receptor LXR-beta (Homo sapiens). Provenance: assorted publications.
pIC50: −log10 of the molar value.
measurementLabel: pIC50

Please review the entries below; each comes with its answer.
CCc1nc2c(C(F)(F)F)cccn2c1-c1cccc(Oc2cc(F)cc(S(C)(=O)=O)c2)c1 :: 7.29
Cc1nc2c(Cl)cccc2n1-c1cccc(Oc2cccc(S(=O)(=O)CCC(C)C)c2)c1 :: 7.70
Cn1cc(C(=O)O)c2cc(NCc3cccc(-c4c(Cc5ccccc5)cnc5c(C(F)(F)F)cccc45)c3)ccc21 :: 6.20
CS(=O)(=O)CCCS(=O)(=O)c1cccc(Oc2ccc(F)c(-c3ncnc4c(C(F)(F)F)cccc34)c2)c1 :: 7.23

P = Cc1nc2c(C(F)(F)F)cccc2nc1-c1cc(Oc2cccc(S(=O)(=O)CCCN)c2)ccc1Cl
Q = O=S(=O)(CCCO)c1cccc(Oc2cccc(-c3ncnc4c(C(F)(F)F)cccc34)c2)c1
R = CCS(=O)(=O)c1cccc(C(=O)Oc2cccc(-c3c(-c4ccccc4)cnc4c(Cl)cccc34)c2)c1
Provide the items ranked by increasing pIC50. Write the labels, ordered according to the request. Q, P, R
(Q: 6.39, P: 7.20, R: 8.52)
